system: BDF1 mice, B16 melanoma ip, median survival T/C; assay: NCI In Vivo Anticancer Drug Screen. Data for tumor model B16 Melanoma (intraperitoneal) in B6D2F1 (BDF1) mice; conditions: endpoint: median survival time; dose: 200.0 mg/kg/injection; schedule: Q04DX003 (ip); vehicle: saline with Tween-80; higher = longer survival
Inconclusive results and toxic doses are left out.
For each record, write down the corresponding T/C.

Given CCCCC(CC)COP(OCC(CC)CCCC)OCC(CC)CCCC (centres undefined) , state its recorded T/C.
86 % of control

Okay, and Cc1ccc(CO)cc1C ?
104 % of control

Okay, and O/N=C\c1ccc(/C=N/O)cc1 ?
111 % of control

Okay, and O=C(Nc1ccc2ccccc2c1)c1ccc(Cl)cc1Cl ?
91 % of control

Okay, and CCOC(=O)C(=CN(C(C)C)C(C)C)C(=O)OCC ?
108 % of control

Okay, and CCCCN(C)N=Nc1c(C(N)=O)n[nH]c1C ?
113 % of control

Okay, and O=C(OCc1ccccc1)C(=O)OCc1ccccc1 ?
107 % of control

Okay, and Cc1ccc(NC(=O)c2ccccc2)c(C)c1 ?
90 % of control

Okay, and CNc1ccc(C(=O)O)cc1OC ?
91 % of control

Okay, and CC12C=CC(C=C1)C(O)C2 (centres undefined) ?
93 % of control

Okay, and OC(Cc1nc(-c2ccccc2)c(-c2ccccc2)s1)(C(F)(F)F)C(F)(F)F ?
86 % of control

Okay, and NC(C/[N+]([O-])=N/O)C(=O)O (centres undefined) ?
100 % of control

Okay, and C=CCn1c(=S)[nH]c2ccccc2c1=O ?
94 % of control

Okay, and COB1OB(OC)OB(OC)O1 ?
112 % of control

---

test system: BDF1 mice, B16 melanoma ip, median survival T/C; experiment: NCI In Vivo Anticancer Drug Screen. Data for tumor model B16 Melanoma (intraperitoneal) in B6D2F1 (BDF1) mice; details: endpoint: median survival time; dose: 100.0 mg/kg/injection; schedule: Q04DX003 (ip); vehicle: Klucel (hydroxypropylcellulose) (HPC); higher = longer survival
Toxic doses and inconclusive results are not listed.
For each record, write down the corresponding T/C.

Given CC(NC(=O)OCc1ccccc1)C(=O)O (stereo unspecified) , state its recorded T/C.
88 % of control

Okay, and O=C/C(Br)=C\c1ccccc1 ?
96 % of control

Okay, and CCOC(=O)NC(C(=O)OC)C(=O)OC ?
95 % of control

Okay, and O=S(=O)(/N=C1C=C/C(=N/S(=O)(=O)c2ccccc2)C2C3C=CC(C3)C/12)c1ccccc1 (stereo unspecified) ?
92 % of control

Okay, and COc1ccc(NC(=O)Oc2cc(C)cc(C)c2)cc1 ?
112 % of control

Okay, and COc1cc(C(=O)CC(O)(C(F)(F)F)C(F)(F)F)cc(OC)c1OC ?
110 % of control

---

system: BDF1 mice, B16 melanoma ip, median survival T/C; test: NCI In Vivo Anticancer Drug Screen. Data for tumor model B16 Melanoma (intraperitoneal) in B6D2F1 (BDF1) mice; conditions: endpoint: median survival time; dose: 50.0 mg/kg/injection; schedule: Q01DX009 (ip); vehicle: saline; higher = longer survival
Toxic doses and inconclusive results are not listed. Numbered stars: 1 amine (or outer) side, 2 acyl side, 3 side chain; on linkers, the order of the positions; unused ones are H or OH. Peptide text beside a SMILES is read from it. γGlu = O=C(O)[CH](CCC(=O)[*:2])N[*:1]
measured.quantity: T/C

Given NCC1OC(OC2C(CO)OC(OC3C(O)C(N)CC(N)C3OC3OC(CO)C(O)C(O)C3N)C2O)C(N)C(O)C1O (stereo unspecified) , state its recorded T/C.
114 % of control

Okay, and CC(N)Cc1ccc(O)cc1 (stereo unspecified) ?
100 % of control

Okay, and CCC(=O)OC1(c2ccccc2)CCN(C)C1C (stereo unspecified) ?
97 % of control

Okay, and CCN(CC)CCOC(=O)N(c1ccccc1)c1ccccc1 ?
95 % of control

Okay, and OCCOCCN1CCN(C(c2ccccc2)c2ccc(Cl)cc2)CC1 (stereo unspecified) ?
100 % of control

Okay, and Cc1cn(C2CC(F)C(CO)O2)c(=O)[nH]c1=O (stereo unspecified) ?
115 % of control

Okay, and CCCSc1ccccc1N1CCN(CC(COC)OC)CC1 (stereo unspecified) ?
96 % of control

Okay, and NC(CCC(=O)NC(CCC(=O)O)C(=O)NC(CCC(=O)O)C(=O)O)C(=O)O (stereo not drawn) (γGlu-Glu-Glu-OH; configuration not given here) ?
92 % of control

Okay, and Cc1cc(C)c(S(=O)(=O)O)cc1C ?
115 % of control

Okay, and O=C(CCl)N1c2ccccc2Oc2cc3ccccc3cc21 ?
113 % of control

Okay, and CC(=O)C(N)CCC(=O)O (stereo unspecified) ?
105 % of control

Okay, and CC(N)CN(C)C (stereo unspecified) ?
101 % of control

Okay, and OCC1OC(n2cnc3c(Cl)ncnc32)C(O)C1O (stereo unspecified) ?
108 % of control

Okay, and CSCCC(N)C(=O)NC(CC(N)=O)C(=O)O (stereo not drawn) (H-Met-Asn-OH; configuration not given here) ?
108 % of control

Okay, and NC1CONC1=O (stereo unspecified) ?
102 % of control

Okay, and CC(C)NNC(=O)C(N)CCC(=O)O (stereo unspecified) ?
104 % of control

Okay, and C=C1CC2(OC1=O)C(=O)N(C)c1ccc(I)cc12 (stereo unspecified) ?
110 % of control

Okay, and COC(=O)C(c1ccccc1)C1CCCCN1 (stereo unspecified) ?
97 % of control

Okay, and OCC1OC(Oc2ccc(O)cc2)C(O)C(O)C1O (stereo unspecified) ?
100 % of control

Okay, and NC(=O)N1OCC(N)C1=O (stereo unspecified) ?
95 % of control

Okay, and CCC(CC)(CO)CO ?
102 % of control

---

For each record, write down the corresponding T/C.
system: BDF1 mice, B16 melanoma ip, median survival T/C; assay: NCI In Vivo Anticancer Drug Screen. Data for tumor model B16 Melanoma (intraperitoneal) in B6D2F1 (BDF1) mice; details: endpoint: median survival time; dose: 100.0 mg/kg/injection; schedule: Q01DX009 (ip); vehicle: saline with Tween-80; higher = longer survival
Inconclusive results and toxic doses are left out.

Given Oc1ccc2ccccc2c1Cc1c(O)ccc2ccccc12 , state its recorded T/C.
94 % of control

Okay, and CCOC(=O)c1[nH]c(C#N)c(C(=O)OCC)c1C ?
88 % of control

Okay, and CC(=O)Nc1ccc2c(ccc3ccccc32)c1 ?
89 % of control

Okay, and COc1ccc(Cl)cc1NC(=O)C(Br)C(Br)C(=O)O (configuration not stated) ?
89 % of control

Okay, and C=NCC#N ?
93 % of control

Okay, and CCCC(C(=O)O)c1ccccc1C (configuration not stated) ?
102 % of control

Okay, and Cc1cc(=O)[nH]c(N/N=C/c2ccc(N(C)C)cc2)n1 ?
100 % of control

---

Test system: BDF1 mice, B16 melanoma ip, median survival T/C
Assay: NCI In Vivo Anticancer Drug Screen. Data for tumor model B16 Melanoma (intraperitoneal) in B6D2F1 (BDF1) mice
Conditions: endpoint: median survival time; dose: 3.12 mg/kg/injection; schedule: Q01DX009 (ip); vehicle: Klucel (hydroxypropylcellulose) (HPC)
Method: The antitumor activity of compounds was measured in mice bearing transplantable tumors. Survival or tumor size were measured and the results are expressed as the measurement made in the treated group (T) divided by the measurement made in the vehicle treated control group (C). The tumor model used in this assay is B16 Melanoma (intraperitoneal) in B6D2F1 (BDF1) mice
Inconclusive results and toxic doses are left out. The calls were made as follows: active = survival T/C of 150% or more; inactive = T/C below 125% in these data.
Pick one: active, inactive

Name the outcome recorded for Nc1nc(N)c2cc(CNc3ccc(C(=O)NC(CC(=O)O)CC(=O)O)cc3)ccc2n1 in the assay.
inactive

Okay, and CS(=O)(=O)ON1C(=O)c2ccccc2C1=O ?
inactive

Okay, and O=C1NC(c2ccccc2)(c2ccccc2)C(=O)N1CCN(CCCl)CCCl ?
active

Okay, and Cc1ccc(NC(=O)N(CCCl)N=O)cc1C ?
active

Okay, and CN1C(=O)CCS(=O)(=O)C1c1ccc(Cl)cc1 (stereo not drawn) ?
inactive

Okay, and Cc1cccc(C)c1NC(=S)N(C)C ?
inactive

Okay, and COC1=CC(=O)C(O)=C(CC2(C)C(C)CCC3(C)C2CCCC3(C)C)C1=O (stereo not drawn) ?
inactive

Okay, and Oc1ccc(/C=N/NC(=S)NN2CCOCC2)nc1 ?
inactive

---

For each record, write down the corresponding T/C.
system: BDF1 mice, B16 melanoma ip, median survival T/C; test: NCI In Vivo Anticancer Drug Screen. Data for tumor model B16 Melanoma (intraperitoneal) in B6D2F1 (BDF1) mice; conditions: endpoint: median survival time; dose: 12.5 mg/kg/injection; schedule: Q01DX009 (ip); vehicle: saline with Tween-80; higher = longer survival
Inconclusive results and toxic doses are left out.

Given CO[C@@H](C=O)O[C@@H](C=O)CO , state its recorded T/C.
108 % of control

Okay, and CCCSc1ncnc2nc[nH]c12 ?
102 % of control

Okay, and COc1cc2c(c(OC)c1OC)C(=O)/C(=C\c1ccccc1)O2 ?
106 % of control

Okay, and CC1(C)N=C(N)N=C(N)N1c1cccc(CCCCc2cccc(S(=O)(=O)F)c2)c1 ?
96 % of control

Okay, and COc1ccccc1C(C#N)N1CCCN(C(C#N)c2ccccc2OC)C1c1cc(Cl)cc(Cl)c1O (stereo not given) ?
101 % of control

Entry source: PubChem BioAssay AID192
